KAT6A (Homo sapiens, UniProt Q92794) measurements of IC50, listed per entry.
Sequence (Q92794 whole entry): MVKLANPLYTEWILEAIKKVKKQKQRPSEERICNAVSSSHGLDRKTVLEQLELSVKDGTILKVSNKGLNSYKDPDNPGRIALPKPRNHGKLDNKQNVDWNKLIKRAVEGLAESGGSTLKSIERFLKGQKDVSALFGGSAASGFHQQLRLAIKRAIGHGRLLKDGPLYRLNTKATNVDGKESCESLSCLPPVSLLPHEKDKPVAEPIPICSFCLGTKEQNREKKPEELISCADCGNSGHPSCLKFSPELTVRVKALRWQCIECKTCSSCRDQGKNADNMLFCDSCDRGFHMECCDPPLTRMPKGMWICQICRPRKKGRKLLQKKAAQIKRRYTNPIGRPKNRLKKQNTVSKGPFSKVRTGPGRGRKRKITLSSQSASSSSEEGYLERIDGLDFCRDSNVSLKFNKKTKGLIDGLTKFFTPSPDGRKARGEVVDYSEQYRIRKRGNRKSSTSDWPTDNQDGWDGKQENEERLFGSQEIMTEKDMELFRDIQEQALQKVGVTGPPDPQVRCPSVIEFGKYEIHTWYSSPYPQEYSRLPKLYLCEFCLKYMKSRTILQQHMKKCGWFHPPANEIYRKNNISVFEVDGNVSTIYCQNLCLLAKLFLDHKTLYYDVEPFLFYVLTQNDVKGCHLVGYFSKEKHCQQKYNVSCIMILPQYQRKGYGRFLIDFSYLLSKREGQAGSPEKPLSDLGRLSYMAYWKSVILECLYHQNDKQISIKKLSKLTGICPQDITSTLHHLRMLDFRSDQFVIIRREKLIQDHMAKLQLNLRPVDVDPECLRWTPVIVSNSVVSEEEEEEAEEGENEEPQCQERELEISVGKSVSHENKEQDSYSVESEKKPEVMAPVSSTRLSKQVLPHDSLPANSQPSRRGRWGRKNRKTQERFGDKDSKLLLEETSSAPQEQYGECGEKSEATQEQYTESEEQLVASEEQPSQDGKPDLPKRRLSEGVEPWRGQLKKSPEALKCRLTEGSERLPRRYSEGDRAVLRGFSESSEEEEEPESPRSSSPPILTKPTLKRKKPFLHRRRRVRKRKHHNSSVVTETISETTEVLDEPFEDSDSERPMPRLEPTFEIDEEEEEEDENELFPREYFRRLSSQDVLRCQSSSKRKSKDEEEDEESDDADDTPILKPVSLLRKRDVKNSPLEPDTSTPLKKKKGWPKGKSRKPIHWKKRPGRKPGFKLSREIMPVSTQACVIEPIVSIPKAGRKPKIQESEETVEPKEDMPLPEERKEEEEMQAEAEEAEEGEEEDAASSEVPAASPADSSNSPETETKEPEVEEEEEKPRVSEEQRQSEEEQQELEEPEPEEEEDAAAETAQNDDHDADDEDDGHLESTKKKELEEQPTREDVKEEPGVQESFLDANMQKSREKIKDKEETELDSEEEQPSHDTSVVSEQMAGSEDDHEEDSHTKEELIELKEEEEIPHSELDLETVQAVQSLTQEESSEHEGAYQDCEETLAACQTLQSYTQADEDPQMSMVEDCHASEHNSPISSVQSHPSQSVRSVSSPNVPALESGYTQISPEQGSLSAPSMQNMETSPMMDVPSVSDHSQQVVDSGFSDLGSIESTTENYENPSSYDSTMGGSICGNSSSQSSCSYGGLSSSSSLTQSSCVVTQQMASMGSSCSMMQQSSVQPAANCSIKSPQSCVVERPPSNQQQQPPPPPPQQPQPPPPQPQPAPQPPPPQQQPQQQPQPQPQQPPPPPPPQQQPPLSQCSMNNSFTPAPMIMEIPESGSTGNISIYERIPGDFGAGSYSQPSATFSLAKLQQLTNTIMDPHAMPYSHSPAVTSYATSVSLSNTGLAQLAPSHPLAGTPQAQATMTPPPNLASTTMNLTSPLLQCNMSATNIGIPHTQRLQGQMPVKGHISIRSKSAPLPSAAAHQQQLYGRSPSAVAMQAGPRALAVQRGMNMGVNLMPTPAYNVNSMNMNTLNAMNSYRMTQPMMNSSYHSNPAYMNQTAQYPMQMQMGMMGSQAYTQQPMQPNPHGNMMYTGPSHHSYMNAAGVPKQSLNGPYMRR
Give the quantity in nM, number only.

compound	value-units	IC50
COc1ccc2c(c1S(=O)(=O)Nc1noc3cc(Cn4cccn4)nc(OC)c13)OC(C)C2 (stereo not shown)	nM	1.22
COc1cc2ccoc2cc1S(=O)(=O)Nc1noc2cc(Cn3cccn3)nc(OC)c12	nM	8.28
COc1nc(Cn2cccn2)cc2onc(NS(=O)(=O)c3ccc4occc4c3)c12	nM	4.56

Consider now this further compound.
Ask | Could you share which IC50 value was measured for [2H]c1cc2ccc(OC)c(S(=O)(=O)Nc3noc4cc(Cn5cccn5)nc(OC)c34)c2o1 ?
Reply | 0.83
